The compounds listed here are annotated with their caspase 30 μM.
System: Caspase 3
Assay: Caspase 3 detection assay in SJSA1 cells
Format: cell-based
Details: 30 μM, SJSA1, 48 h, Caspase 3 activation over DMSO-treated cells
Bridge positions count the residues as written; N and C are the ends. Square brackets hold non-standard residues; d marks the D form. Peptide text beside a SMILES is read from it. R8 = C=CCCCCCC[C@@](C)(N)C(=O)O; Cba = N[C@@H](CC1CCC1)C(=O)O; S5 = C=CCCC[C@](C)(N)C(=O)O; Nle = CCCC[C@H](N)C(=O)O
// print number alone

Look over these answered cases.
compound="CC[C@H](C)[C@H](NC(=O)[C@H](C)NC(=O)[C@H](C)NC(=O)[C@]1(C)CCCC=CCCCCCC[C@@](C)(NC(=O)[C@H](Cc2ccccc2)NC(=O)[C@@H](NC(=O)[C@H](CC(C)C)NC(C)=O)[C@@H](C)O)C(=O)N[C@@H](C)C(=O)N[C@@H](Cc2c[nH]cn2)C(=O)N[C@@H](Cc2c[nH]c3ccccc23)C(=O)N[C@@H](C)C(=O)N[C@@H](CCC(N)=O)C(=O)N[C@@H](CC(C)C)C(=O)N1)C(=O)N[C@H](C)C(N)=O [compound 170] (Ac-LTF[R8]AHWAQL[S5]AAI[dA]-NH2; staple 4-11)" measurement_kind="caspase 30 μM" test_result=20
compound="CCCC[C@H](NC(=O)[C@H](C)NC(=O)[C@H](CO)NC(=O)[C@]1(C)CCCC=CCCCCCC[C@@](C)(NC(=O)[C@H](Cc2ccccc2)NC(=O)[C@@H](NC(=O)[C@H](CC(C)C)NC(C)=O)[C@@H](C)O)C(=O)N[C@@H](CCC(=O)O)C(=O)N[C@@H](Cc2ccc(O)cc2)C(=O)N[C@@H](Cc2c[nH]c3ccccc23)C(=O)N[C@@H](CO)C(=O)N[C@@H](CCC(N)=O)C(=O)N[C@@H](CC2CCC2)C(=O)N1)C(=O)N[C@@H](C)C(N)=O [compound 245] (Ac-LTF[R8]EYWSQ[Cba][S5]SA[Nle]A-NH2; staple 4-11)" measurement_kind="caspase 30 μM" test_result=16
compound=CC(=O)N[C@@H](CC(C)C)C(=O)N[C@H](C(=O)N[C@@H](Cc1ccc(F)c(F)c1)C(=O)N[C@]1(C)CCCCCC/C=C/CCC[C@@](C)(C(=O)N[C@@H](CO)C(=O)N[C@@H](C)C(=O)N[C@@H](C)C(N)=O)NC(=O)[C@H](CCC(C)C)NC(=O)[C@H](CCC(N)=O)NC(=O)[C@H](C)NC(=O)[C@H](Cc2c[nH]c3ccccc23)NC(=O)[C@H](Cc2ccc(O)cc2)NC(=O)[C@H](CCC(=O)O)NC1=O)[C@@H](C)O measurement_kind="caspase 30 μM" test_result=31

Input line: Request body: readout caspase 30 μM, system Caspase 3, query CC(=O)N[C@@H](CC(C)C)C(=O)N[C@H](C(=O)N[C@@H](Cc1ccccc1)C(=O)N[C@]1(C)CCCCCCC=CCCC[C@@](C)(C(=O)N[C@@H](CO)C(=O)N[C@@H](CC(C)C)C(=O)N[C@@H](C)C(N)=O)NC(=O)[C@H](CC(C)C)NC(=O)[C@H](CCC(N)=O)NC(=O)[C@H](C)NC(=O)[C@H](Cc2c[nH]c3ccccc23)NC(=O)[C@H](Cc2ccc(O)cc2)NC(=O)[C@H](C)NC1=O)[C@@H](C)O (single isomer, unassigned) . Return the value.
Output line: 27

Input line: // map CC(=O)N[C@@H](CC(C)C)C(=O)N[C@H](C(=O)N[C@@H](Cc1ccccc1)C(=O)N[C@]1(C)CCCCCCC=CCCC[C@@](C)(C(=O)N[C@@H](CO)C(=O)NC(C)(C)C(=O)N[C@@H](C)C(=O)N[C@@H](C)C(N)=O)NC(=O)[C@H](CC(C)C)NC(=O)[C@H](CCC(N)=O)NC(=O)[C@H](C)NC(=O)[C@H](Cc2c[nH]c3ccccc23)NC(=O)[C@H](Cc2ccc(O)cc2)NC(=O)[C@H](C)NC1=O)[C@@H](C)O (single isomer, unassigned) to recorded caspase 30 μM (system: Caspase 3)
Output line: 14

Input line: What reported caspase 30 μM corresponds to CC(=O)N[C@@H](CC(C)C)C(=O)N[C@H](C(=O)N[C@@H](Cc1ccccc1)C(=O)N[C@]1(C)CCCCCCC=CCCC[C@@](C)(C(=O)N[C@@H](CO)C(=O)N[C@@H](C)C(=O)N[C@@H](C)C(N)=O)NC(=O)[C@H](C2CCCC2)NC(=O)[C@H](CCC(N)=O)NC(=O)[C@H](C)NC(=O)[C@H](Cc2c[nH]c3ccccc23)NC(=O)[C@H](Cc2ccc(O)cc2)NC(=O)[C@H](CCC(=O)O)NC1=O)[C@@H](C)O (single isomer, unassigned) on Caspase 3?
Output line: 10

Input line: Given the entry CC(=O)N[C@@H](C)C(=O)N[C@@H](CC(C)C)C(=O)N[C@H](C(=O)N[C@@H](Cc1ccccc1)C(=O)N[C@]1(C)CCCCCCC=CCCC[C@@](C)(C(=O)N[C@@H](CO)C(=O)N[C@@H](C)C(=O)N[C@@H](C)C(=O)N[C@@H](C)C(=O)N[C@H](C)C(N)=O)NC(=O)[C@H](CC2CCC2)NC(=O)[C@H](CCC(N)=O)NC(=O)[C@H](C)NC(=O)[C@H](Cc2c[nH]c3ccccc23)NC(=O)[C@H](Cc2ccc(O)cc2)NC(=O)[C@H](CCC(=O)O)NC1=O)[C@@H](C)O (single isomer, unassigned) , what caspase 30 μM was observed with Caspase 3?
Output line: 23

Input line: API: value(readout= caspase 30 μM, system= Caspase 3, query= CC(=O)N[C@@H](CC(C)C)C(=O)N[C@H](C(=O)N[C@@H](Cc1ccccc1)C(=O)N[C@]1(C)CCCCCCC=CCCC[C@@](C)(C(=O)N[C@@H](C)C(=O)N[C@@H](C)C(=O)N[C@@H](Cc2ccccc2)C(=O)N[C@H](C)C(N)=O)NC(=O)[C@H](CC(C)C)NC(=O)[C@H](CCC(N)=O)NC(=O)[C@H](C)NC(=O)[C@H](Cc2c[nH]c3ccccc23)NC(=O)[C@H](Cc2ccc(O)cc2)NC(=O)[C@H](CCC(=O)O)NC1=O)[C@@H](C)O (single isomer, unassigned) [compound 219] )
Output line: 34
